- experimental-system: Human CD137 ECD (human)
- Sequence (chain, as listed by the source limits assumed): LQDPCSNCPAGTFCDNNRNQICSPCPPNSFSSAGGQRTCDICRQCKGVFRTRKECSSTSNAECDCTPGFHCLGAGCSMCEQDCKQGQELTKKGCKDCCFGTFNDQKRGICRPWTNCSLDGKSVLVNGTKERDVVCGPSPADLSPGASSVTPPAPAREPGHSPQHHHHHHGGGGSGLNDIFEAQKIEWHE
- assay-summary: SPR, vs parent H183/L072
Recorded measurements of fold change of affinity, one per entry
Write the value in fold as a bare number.

binder	units-symbol	fold change of affinity
dBBDu183H A100fK / dBBDu072L (antibody, name in Kabat numbering, V domains shown) VH: QVQLVESGGGLVQPGRSLRLSCAASGFTFSNAWMHWVRQAPGKGLEWVAQIKDKGNAYAAYYAPSVKGRFTISRDDSKNSIYLQMNSLKTEDTAVYYCHYVHYASASTVLPKFGVDAWGQGTTVTVSS VL: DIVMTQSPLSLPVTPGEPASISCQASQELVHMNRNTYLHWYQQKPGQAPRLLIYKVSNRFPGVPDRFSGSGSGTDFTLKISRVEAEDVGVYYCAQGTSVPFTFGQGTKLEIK	fold	0

Attention now shifts to the item below.
Challenge: So what's the measured fold change of affinity for this one? dBBDu183H G100hQ / dBBDu072L (antibody, name in Kabat numbering, V domains shown) VH: QVQLVESGGGLVQPGRSLRLSCAASGFTFSNAWMHWVRQAPGKGLEWVAQIKDKGNAYAAYYAPSVKGRFTISRDDSKNSIYLQMNSLKTEDTAVYYCHYVHYASASTVLPAFQVDAWGQGTTVTVSS VL: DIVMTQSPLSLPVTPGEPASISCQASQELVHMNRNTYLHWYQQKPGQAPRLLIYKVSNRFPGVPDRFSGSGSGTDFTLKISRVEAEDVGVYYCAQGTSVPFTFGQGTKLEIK
Response given: 0

Values compiled from patent US20210388087A1.
